From: ChEMBL document CHEMBL3621107

Experiment: Cytotoxicity against human Hs578T cells after 48 hrs by SRB assay
Assay type: functional
Details: Hs-578T
Values of GI50 strictly less than 3000 nM map to t, and values of at least 3000 nM map to f.

# example entries with known answers
O=C1c2ccccc2C(=O)c2c1cc(Sc1ccc(F)cc1F)c1nsnc21 t
O=C1c2ccccc2C(=O)c2c1cc(SCc1ccccc1)c1nsnc21 f
O=C1c2ccccc2C(=O)c2c1cc(Sc1cccc(Cl)c1)c1nsnc21 t
CC(C)Sc1cc2c(c3nsnc13)C(=O)c1ccccc1C2=O t

Okay, next one:
Does the reported GI50 of O=C1c2ccccc2C(=O)c2c1cc(Sc1ccccc1Br)c1nsnc21 stay below 3000 nM?
f

* * *

Overview of recorded growth at 10 µM for various compounds
System: Malme-3M
Assay: Cytotoxicity against human MALME-3M cells assessed as cell growth at 10 uM after 48 hrs by SRB assay relative to control
Type: functional
Conditions: read-out: Activity
Please state the figure in %; there is no need to write the unit.

Use the examples below as a reference point.
O=C1c2ccccc2C(=O)c2c1ccc1nsnc21 -71.6
CSc1ccc(Sc2cc3c(c4nsnc24)C(=O)c2ccccc2C3=O)cc1 105
O=C1c2ccccc2C(=O)c2c1cc(Sc1ccccc1Br)c1nsnc21 35.3
O=C1c2ccccc2C(=O)c2c1cc(Sc1cc(Cl)ccc1Cl)c1nsnc21 94.3
O=C1c2ccccc2C(=O)c2c1cc(Sc1ccc(Cl)cc1)c1nsnc21 105

Report growth at 10 µM under test system Malme-3M for COc1ccc(Sc2cc3c(c4nsnc24)C(=O)c2ccccc2C3=O)cc1 .
89.5

Jot down growth at 10 µM (Malme-3M) of COc1cccc(Sc2cc3c(c4nsnc24)C(=O)c2ccccc2C3=O)c1 .
113

Give measured growth at 10 µM for O=C1c2ccccc2C(=O)c2c1cc(SCc1ccc(Cl)cc1)c1nsnc21 (Malme-3M).
86.4

Write down measured growth at 10 µM (Malme-3M) for this compound. CCOc1cccc(Sc2cc3c(c4nsnc24)C(=O)c2ccccc2C3=O)c1
109

Recall the reported growth at 10 µM of Cc1ccc(Sc2cc3c(c4nsnc24)C(=O)c2ccccc2C3=O)c(C)c1 on Malme-3M and write it down.
108

Report measured growth at 10 µM on Malme-3M; entry: Cc1cccc(C)c1Sc1cc2c(c3nsnc13)C(=O)c1ccccc1C2=O
73.7

Consider the compound O=C1c2ccccc2C(=O)c2c1cc(Cl)c1nsnc21 tested on Malme-3M; state its growth at 10 µM.
97.1

Give measured growth at 10 µM for O=C1c2ccccc2C(=O)c2c1cc(SCc1ccccc1)c1nsnc21 (Malme-3M).
80.8

Tell me growth at 10 µM of O=C1c2ccccc2C(=O)c2c1cc(Sc1cccc(Cl)c1)c1nsnc21 when tested on Malme-3M.
-86.6

* * *

Reported TGI values for a set of compounds
Test system: UACC-62
Assay: Cytotoxicity against human UACC62 cells after 48 hrs by SRB assay
Assay type: functional
Settings: UACC-62, 48 h
Please respond with the number in µM and leave the unit unwritten.

Example compounds with recorded TGI:
O=C1c2ccccc2C(=O)c2c1cc(Sc1ccc(F)cc1F)c1nsnc21 4.37
O=C1c2ccccc2C(=O)c2c1cc(SCc1ccccc1)c1nsnc21 18.6

Give the measured TGI for O=C1c2ccccc2C(=O)c2c1cc(Sc1cccc(Cl)c1)c1nsnc21
3.26

Retrieve TGI measured for CC(C)Sc1cc2c(c3nsnc13)C(=O)c1ccccc1C2=O and print it.
2.67

Give TGI for O=C1c2ccccc2C(=O)c2c1cc(Sc1ccccc1Br)c1nsnc21
40.8

* * *

System: KM12
Assay: Cytotoxicity against human KM12 cells after 48 hrs by SRB assay
Format: functional
Conditions: KM12, 48 h
MEASURED_METRIC: TGI (µM)
Write down the numeric answer in µM and omit the unit.

CC(C)Sc1cc2c(c3nsnc13)C(=O)c1ccccc1C2=O 11.3
O=C1c2ccccc2C(=O)c2c1cc(Sc1cccc(Cl)c1)c1nsnc21 28

Fill in reported TGI for this entry: O=C1c2ccccc2C(=O)c2c1cc(Sc1ccc(F)cc1F)c1nsnc21
77.3

* * *

System: M14
Assay: Cytotoxicity against human M14 cells assessed as cell growth at 10 uM after 48 hrs by SRB assay relative to control
Assay type: functional
Settings: M14, 48 h, read-out: Activity
MEASURED_METRIC: growth at 10 µM (%)
Give just the number in %; leave the unit off.

Would you please look over these solved cases?
O=C1c2ccccc2C(=O)c2c1cc(Sc1ccc(F)cc1F)c1nsnc21 53.8
CC(C)Sc1cc2c(c3nsnc13)C(=O)c1ccccc1C2=O -31.5
CSc1ccc(Sc2cc3c(c4nsnc24)C(=O)c2ccccc2C3=O)cc1 108
O=C1c2ccccc2C(=O)c2c1cc(Sc1ccc(Cl)cc1)c1nsnc21 105
COc1cccc(Sc2cc3c(c4nsnc24)C(=O)c2ccccc2C3=O)c1 94.2
Cc1cccc(C)c1Sc1cc2c(c3nsnc13)C(=O)c1ccccc1C2=O 122
Cc1ccccc1Sc1cc2c(c3nsnc13)C(=O)c1ccccc1C2=O 94.2
O=C1c2ccccc2C(=O)c2c1cc(Sc1cccc(Cl)c1)c1nsnc21 -76.4
O=C1c2ccccc2C(=O)c2c1cc(Sc1ccccc1Br)c1nsnc21 59.5
O=C1c2ccccc2C(=O)c2c1cc(Cl)c1nsnc21 103

// switching to the query molecule
Give the value of growth at 10 µM reported for the following: O=C1c2ccccc2C(=O)c2c1cc(SCc1ccc(Cl)cc1)c1nsnc21
126

* * *

// growth at 10 µM lookup, one value per entry
System: COLO 205
Assay: Cytotoxicity against human COLO205 cells assessed as cell growth at 10 uM after 48 hrs by SRB assay relative to control
Assay type: functional
Conditions: COLO 205, 48 h, read-out: Activity
Your answer is read as %, so omit the unit and give the number.

O=C1c2ccccc2C(=O)c2c1ccc1nsnc21 112

Provide measured growth at 10 µM value, entry: O=C1c2ccccc2C(=O)c2c1cc(Cl)c1nsnc21
99.1

Consider the compound CSc1ccc(Sc2cc3c(c4nsnc24)C(=O)c2ccccc2C3=O)cc1 . State its measured growth at 10 µM.
117

Supply growth at 10 µM value. Item: O=C1c2ccccc2C(=O)c2c1cc(Sc1ccccc1Br)c1nsnc21
97.4

Return growth at 10 µM for the following compound: CC(C)Sc1cc2c(c3nsnc13)C(=O)c1ccccc1C2=O
102

Given the compound O=C1c2ccccc2C(=O)c2c1cc(Sc1ccccc1)c1nsnc21 , write its reported growth at 10 µM.
118

State its growth at 10 µM: O=C1c2ccccc2C(=O)c2c1cc(Sc1cccc(Cl)c1)c1nsnc21
106

Please look at this compound and report its growth at 10 µM: O=C1c2ccccc2C(=O)c2c1cc(SCc1ccc(Cl)cc1)c1nsnc21
99.9

Give growth at 10 µM for O=C1c2ccccc2C(=O)c2c1cc(Sc1ccc(F)cc1F)c1nsnc21
104

* * *

System: HCT-15
Experiment: Cytotoxicity against human HCT15 cells assessed as cell growth at 10 uM after 48 hrs by SRB assay relative to control
Type: functional
Conditions: HCT-15, 48 h, read-out: Activity
// classify(record): look up growth at 10 µM in ranges low end = under 40%, middle = from 40% up to 90%, high end = 90% and over

Answered cases to consult:
O=C1c2ccccc2C(=O)c2c1cc(Sc1cccc(Cl)c1)c1nsnc21 low end
COc1cccc(Sc2cc3c(c4nsnc24)C(=O)c2ccccc2C3=O)c1 middle
Cc1ccccc1Sc1cc2c(c3nsnc13)C(=O)c1ccccc1C2=O low end
O=C1c2ccccc2C(=O)c2c1cc(SCc1ccccc1)c1nsnc21 middle

Categorize the following entry: COc1ccc(Sc2cc3c(c4nsnc24)C(=O)c2ccccc2C3=O)cc1
high end

Lab note: which band did O=C1c2ccccc2C(=O)c2c1cc(SCc1ccc(Cl)cc1)c1nsnc21 land in?
high end

Please report the category associated with CSc1ccc(Sc2cc3c(c4nsnc24)C(=O)c2ccccc2C3=O)cc1 , nothing else.
high end

Determine which band this molecule sits in: O=C1c2ccccc2C(=O)c2c1cc(Sc1cc(Cl)ccc1Cl)c1nsnc21
high end

Using the reported growth at 10 µM, which band applies to O=C1c2ccccc2C(=O)c2c1cc(Sc1ccc(F)cc1F)c1nsnc21 ?
middle

Please indicate the class for O=C1c2ccccc2C(=O)c2c1ccc1nsnc21 based on its growth at 10 µM.
low end

* * *

Test system: COLO 205
Test: Cytotoxicity against human COLO205 cells assessed as cell growth at 10 uM after 48 hrs by SRB assay relative to control
Format: functional
Settings: COLO 205, 48 h, read-out: Activity
MEASURED_METRIC: growth at 10 µM (%)
The response must be a number in % with no trailing unit.

Examples with their reported growth at 10 µM follow.
COc1cccc(Sc2cc3c(c4nsnc24)C(=O)c2ccccc2C3=O)c1 110
CCOc1cccc(Sc2cc3c(c4nsnc24)C(=O)c2ccccc2C3=O)c1 106
O=C1c2ccccc2C(=O)c2c1cc(Sc1ccc(Cl)cc1)c1nsnc21 121
Cc1cccc(C)c1Sc1cc2c(c3nsnc13)C(=O)c1ccccc1C2=O 98.8
O=C1c2ccccc2C(=O)c2c1cc(SCc1ccccc1)c1nsnc21 103
Cc1ccc(Sc2cc3c(c4nsnc24)C(=O)c2ccccc2C3=O)c(C)c1 107

Specify measured growth at 10 µM for Cc1ccccc1Sc1cc2c(c3nsnc13)C(=O)c1ccccc1C2=O .
99.2

Return growth at 10 µM for the following compound: Cc1cc(C)cc(Sc2cc3c(c4nsnc24)C(=O)c2ccccc2C3=O)c1
106

Please report growth at 10 µM for the following compound: O=C1c2ccccc2C(=O)c2c1cc(Sc1cc(Cl)ccc1Cl)c1nsnc21
110

Quote growth at 10 µM reported for COc1ccc(Sc2cc3c(c4nsnc24)C(=O)c2ccccc2C3=O)cc1 please.
112
